Overview of recorded solubility for various compounds
METHOD_SUMMARY: Solubility of the compound at pH 7
Type: physicochemical
CONDITION_DESCRIPTION: buffer, read-out: solubility

{"COMPOUND": "O=C(O)CC1CCC2(CC1)CCN(c1ccc(-c3nc4cc(C(F)(F)F)ccc4[nH]3)cn1)CC2", "solubility": "45 µM"}
{"COMPOUND": "O=C(O)CC1CCOC2(CCN(c3ccc(-c4nc5cc(C(F)(F)F)ccc5[nH]4)cn3)CC2)C1 (racemic)", "solubility": "184 µM"}
{"COMPOUND": "O=C(O)C[C@H]1COC2(CCN(c3ccc(-c4nc5cc(C(F)(F)F)ccc5[nH]4)cn3)CC2)C1", "solubility": "153 µM"}
{"COMPOUND": "O=C(O)C1CCC2(CCN(c3ccc(-c4nc5cc(C(F)(F)F)ccc5[nH]4)cn3)CC2)CO1 (stereo not given)", "solubility": "154 µM"}
{"COMPOUND": "O=C(O)CC1COC2(CCN(c3ccc(-c4nc5cc(C(F)(F)F)ccc5[nH]4)cn3)CC2)C1 (racemic)", "solubility": "182 µM"}
{"COMPOUND": "O=C(O)CC1CCC2(CCN(c3ccc(-c4nc5cc(C(F)(F)F)ccc5[nH]4)cn3)CC2)OC1 (racemic)", "solubility": "172 µM"}
{"COMPOUND": "O=C(O)CC1CCC2(CCN(c3ccc(-c4nc5cc(C(F)(F)F)ccc5[nH]4)cn3)CC2)O1 (racemic)", "solubility": "149 µM"}
{"COMPOUND": "O=C(O)C1CCC2(CCN(c3ccc(-c4nc5cc(C(F)(F)F)ccc5[nH]4)cn3)CC2)OC1 (stereo not given)", "solubility": "163 µM"}
{"COMPOUND": "O=C(O)C[C@@H]1COC2(CCN(c3ccc(-c4nc5cc(C(F)(F)F)ccc5[nH]4)cn3)CC2)C1", "solubility": "158 µM"}
{"COMPOUND": "O=C(O)CN1CCC2(CC1)CCN(c1ccc(-c3nc4cc(C(F)(F)F)ccc4[nH]3)cn1)CC2", "solubility": "168 µM"}

* * *

TARGET_OR_TEST_SYSTEM: Voltage-gated inwardly rectifying potassium channel KCNH2 (Homo sapiens, UniProt Q12809)
Sequence (Q12809 whole entry): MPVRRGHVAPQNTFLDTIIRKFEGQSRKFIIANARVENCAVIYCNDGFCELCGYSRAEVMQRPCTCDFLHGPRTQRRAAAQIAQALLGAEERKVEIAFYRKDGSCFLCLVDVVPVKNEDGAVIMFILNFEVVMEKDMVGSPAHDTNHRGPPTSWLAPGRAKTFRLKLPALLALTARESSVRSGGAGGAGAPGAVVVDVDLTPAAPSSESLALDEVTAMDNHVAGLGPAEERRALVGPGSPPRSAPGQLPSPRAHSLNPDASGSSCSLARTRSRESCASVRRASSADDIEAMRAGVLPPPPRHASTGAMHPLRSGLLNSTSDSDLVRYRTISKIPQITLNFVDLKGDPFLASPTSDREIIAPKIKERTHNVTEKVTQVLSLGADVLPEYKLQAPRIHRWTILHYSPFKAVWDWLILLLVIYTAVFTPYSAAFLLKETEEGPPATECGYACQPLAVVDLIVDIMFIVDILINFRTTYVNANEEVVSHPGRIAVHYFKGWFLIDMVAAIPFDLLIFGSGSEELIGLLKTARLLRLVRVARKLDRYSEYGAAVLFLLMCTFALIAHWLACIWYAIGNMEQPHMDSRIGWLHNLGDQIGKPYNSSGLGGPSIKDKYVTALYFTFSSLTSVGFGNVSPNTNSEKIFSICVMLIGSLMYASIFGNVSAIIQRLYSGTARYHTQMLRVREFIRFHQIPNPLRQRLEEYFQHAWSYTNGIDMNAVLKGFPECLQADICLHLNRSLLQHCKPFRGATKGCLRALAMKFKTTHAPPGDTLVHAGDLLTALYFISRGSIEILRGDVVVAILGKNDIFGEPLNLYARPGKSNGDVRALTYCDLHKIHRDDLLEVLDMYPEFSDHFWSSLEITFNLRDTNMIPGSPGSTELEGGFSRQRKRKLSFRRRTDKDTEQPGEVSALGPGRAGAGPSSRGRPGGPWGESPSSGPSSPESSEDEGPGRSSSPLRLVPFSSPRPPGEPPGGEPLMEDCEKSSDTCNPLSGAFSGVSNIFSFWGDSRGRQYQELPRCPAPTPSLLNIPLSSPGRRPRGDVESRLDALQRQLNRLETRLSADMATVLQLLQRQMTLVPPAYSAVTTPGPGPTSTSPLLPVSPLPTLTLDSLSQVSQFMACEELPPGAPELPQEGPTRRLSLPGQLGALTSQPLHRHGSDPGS
Overview of recorded IC50 for various compounds

{"COMPOUND": "O=C(O)CC1CCC2(CCN(c3ccc(-c4nc5cc(C(F)(F)F)ccc5[nH]4)cn3)CC2)OC1 (racemic)", "TARGET_OR_TEST_SYSTEM": "Voltage-gated inwardly rectifying potassium channel KCNH2 (Homo sapiens, UniProt Q12809)", "VALUE_PREFIX": "=", "IC50 / µM": 7.8}
{"COMPOUND": "O=C(O)CN1CCC2(CC1)CCN(c1ccc(-c3nc4cc(C(F)(F)F)ccc4[nH]3)cn1)CC2", "TARGET_OR_TEST_SYSTEM": "Voltage-gated inwardly rectifying potassium channel KCNH2 (Homo sapiens, UniProt Q12809)", "VALUE_PREFIX": "=", "IC50 / µM": 4.8}
{"COMPOUND": "O=C(O)CC1CCC2(CCN(c3ccc(-c4nc5cc(C(F)(F)F)ccc5[nH]4)cn3)CC2)O1 (racemic)", "TARGET_OR_TEST_SYSTEM": "Voltage-gated inwardly rectifying potassium channel KCNH2 (Homo sapiens, UniProt Q12809)", "VALUE_PREFIX": ">", "IC50 / µM": 60}
{"COMPOUND": "O=C(O)c1ccc2c(c1)C(=O)OC21CCN(c2ccc(-c3nc4cc(C(F)(F)F)ccc4[nH]3)cn2)CC1", "TARGET_OR_TEST_SYSTEM": "Voltage-gated inwardly rectifying potassium channel KCNH2 (Homo sapiens, UniProt Q12809)", "VALUE_PREFIX": "=", "IC50 / µM": 0.56}
{"COMPOUND": "O=C(O)CC1CCC2(CCN(c3ccc(-c4nc5cc(C(F)(F)F)ccc5[nH]4)cn3)CC2)O1 (single isomer, unassigned; form 2)", "TARGET_OR_TEST_SYSTEM": "Voltage-gated inwardly rectifying potassium channel KCNH2 (Homo sapiens, UniProt Q12809)", "VALUE_PREFIX": "=", "IC50 / µM": 17.4}
{"COMPOUND": "O=C(O)CC1CCC2(CCN(c3ccc(-c4nc5cc(C(F)(F)F)ccc5[nH]4)cn3)CC2)OC1 (stereo in doubt)", "TARGET_OR_TEST_SYSTEM": "Voltage-gated inwardly rectifying potassium channel KCNH2 (Homo sapiens, UniProt Q12809)", "VALUE_PREFIX": "=", "IC50 / µM": 0.8}
{"COMPOUND": "O=C(O)CC1CCC2(CCN(c3ccc(-c4nc5cc(C(F)(F)F)ccc5[nH]4)cn3)CC2)OC1 (single isomer, unassigned; ent B)", "TARGET_OR_TEST_SYSTEM": "Voltage-gated inwardly rectifying potassium channel KCNH2 (Homo sapiens, UniProt Q12809)", "VALUE_PREFIX": "=", "IC50 / µM": 1.2}
{"COMPOUND": "O=C(O)C1CCC2(CCN(c3ccc(-c4nc5cc(C(F)(F)F)ccc5[nH]4)cn3)CC2)OC1 (centres undefined)", "TARGET_OR_TEST_SYSTEM": "Voltage-gated inwardly rectifying potassium channel KCNH2 (Homo sapiens, UniProt Q12809)", "VALUE_PREFIX": "=", "IC50 / µM": 14.7}
{"COMPOUND": "O=C(O)CC1CCC2(CCN(c3ccc(-c4nc5cc(C(F)(F)F)ccc5[nH]4)cn3)CC2)O1 (single isomer, unassigned; form 1)", "TARGET_OR_TEST_SYSTEM": "Voltage-gated inwardly rectifying potassium channel KCNH2 (Homo sapiens, UniProt Q12809)", "VALUE_PREFIX": "=", "IC50 / µM": 16}

These measurements were taken from ChEMBL document CHEMBL4049398.
